- STUDY_TARGET: Cdk4/cyclin D1 (Homo sapiens)
- TEST_SUMMARY: Biochemical kinase assay Cdk4/cyclin D1
- ASSAY_CONDITIONS: Table 6
MEASURE: IC50

Solved entries (count: 3):
>>> result("CC(C)c1nn(-c2c(Cl)cccc2Cl)c2nc(Cc3ccc(OCCN4CCOCC4)cc3)[nH]c(=O)c12")
"< 10000 nM"
>>> result("Cc1cc(-c2[nH]nc3c2C(=O)c2c(NC(=O)NN4CCOCC4)cccc2-3)ccc1OCCN1CCN(C(C)C)CC1")
"< 100 nM"
>>> result("Cc1cc(OCCCN2CCN(C(C)C)CC2)ccc1-c1[nH]nc2c1C(=O)c1c(NC(=O)NN3CCOCC3)cccc1-2")
"< 1000 nM"

Next:
The reported IC50 of the compound CN(C)C(=O)COc1ccc(-c2[nH]nc3c2C(=O)c2c(NC(=O)NN4CCOCC4)cccc2-3)cc1 was < 100 nM

----------
- STUDY_TARGET: Cdk2/cyclin E (Homo sapiens)
- TEST_SUMMARY: Biochemical kinase assay Cdk2/cyclin E
- ASSAY_CONDITIONS: Table 6
MEASURE: IC50

>>> result("COCCOc1ccc(Cc2nc3c(c(C(C)C)nn3-c3c(Cl)cccc3Cl)c(=O)[nH]2)cc1")
"< 100 nM"

For reference, reported IC50 for CCN(CCO)S(=O)(=O)c1cc(Cl)c(-n2nc(C(C)C)c3c(=O)[nH]c(Cc4ccc(OCCN5CCOCC5)cc4)nc32)c(Cl)c1 stands at < 100 nM

Lookup result for CN(C)C(=O)COc1ccc(-c2[nH]nc3c2C(=O)c2c(NC(=O)NN4CCOCC4)cccc2-3)cc1 ; measured IC50: < 10 nM

----------
- STUDY_TARGET: Cdk4/cyclin D1 (Homo sapiens, UniProt P11802)
- Sequence (P11802 whole entry, species assumed): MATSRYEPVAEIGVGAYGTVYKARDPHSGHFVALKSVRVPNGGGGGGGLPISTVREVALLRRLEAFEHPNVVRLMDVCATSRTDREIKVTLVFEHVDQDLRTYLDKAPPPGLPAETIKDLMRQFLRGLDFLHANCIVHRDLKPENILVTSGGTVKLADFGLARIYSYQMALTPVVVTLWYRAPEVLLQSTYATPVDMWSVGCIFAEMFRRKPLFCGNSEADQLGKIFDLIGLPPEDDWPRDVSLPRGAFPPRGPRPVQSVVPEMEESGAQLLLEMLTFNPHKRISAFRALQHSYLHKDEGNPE
- Sequence (P24385 whole entry partner, species assumed): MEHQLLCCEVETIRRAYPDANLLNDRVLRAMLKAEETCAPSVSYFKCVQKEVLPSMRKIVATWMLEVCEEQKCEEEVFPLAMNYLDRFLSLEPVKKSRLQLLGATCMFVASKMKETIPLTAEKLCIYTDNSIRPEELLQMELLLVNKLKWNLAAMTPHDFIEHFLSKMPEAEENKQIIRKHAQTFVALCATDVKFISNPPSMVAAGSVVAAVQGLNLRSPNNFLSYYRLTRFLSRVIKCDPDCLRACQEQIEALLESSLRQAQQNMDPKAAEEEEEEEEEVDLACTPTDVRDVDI
- TEST_SUMMARY: Biochemical kinase assay Cdk4/cyclin D1
- ASSAY_CONDITIONS: Table 6
pIC50: −log10 of the molar value.
MEASURE: pIC50

Please review the following examples before continuing.
>>> result("CC(C)c1nn(-c2c(Cl)cc(Cl)cc2Cl)c2nc(Cc3ccc(OCC(C)(C)O)cc3)[nH]c(=O)c12")
"> 6.00"
>>> result("CC(C)c1nn(-c2c(Cl)cccc2Cl)c2nc(Cc3ccc(OCCN4CCOCC4)c(O)c3)[nH]c(=O)c12")
"> 7.00"
>>> result("O=C(Nc1cccc2c1C(=O)c1c-2n[nH]c1-c1ccc(S(=O)(=O)N2CCNCC2)cc1)NN1CCOCC1")
"> 6.00"
>>> result("CN1CCN(NC(=O)Nc2cccc3c2C(=O)c2c(-c4ccc(OCCN5CCCC5)cc4F)n[nH]c2-3)CC1")
"> 7.00"

In plain terms, CN1CCN(NC(=O)Nc2cccc3c2C(=O)c2c-3n[nH]c2-c2ccc(OCC(=O)N3CCCC3)cc2)CC1 has a documented pIC50 of > 7.00
